The origin of these recorded values is the supplement of paper PMC9170038.

Test system: MS2 coat protein
TEST_PROTOCOL: apparent KD of MS2 coat protein; designed switch direction (-1 OFF switch, 1 ON switch): -1; higher = weaker reporter binding
CONDITION_LABEL: Eterna round: R95; input ligand: microRNA oligo, concentration not stated
apparent KD of MS2 coat protein vs 20 nM: at or above is criterion met, below is criterion not met.

>  <SEQUENCE_INPUT>
ACAAGCUUUUUGCUCGUCUACAUGAGGAUCACCCAUGUAGUGAGAUAGUGGUGAAGAUAGAUUGAGCGUAGUAGGUA [JR_SV3TOV1_Sub071] (puzzle: Sensor v3, turn-off variant 1)

>  <ANSWER_LABEL>
criterion met

$$$$
>  <SEQUENCE_INPUT>
UUUGAUGUUGAGGAUAUGCUUUUUUUUAUUAUAGCAGAAGGCGAUACAUGAGGAUCACCCAUGUUCAUGGCUUU [JR_E6_Sub098] (puzzle: Exclusion 6)

>  <ANSWER_LABEL>
criterion not met

$$$$
>  <SEQUENCE_INPUT>
GGAUCGAGUGUGAGGAUAUGCUGGUCCUUGGAUCAGCAGAAGGCACAUGAGGAUCACCCAUGUGAAUACGGUCC [JL bmx4 3.15] (puzzle: Brourd's mod of Exclusion 4)

>  <ANSWER_LABEL>
criterion met

$$$$
>  <SEQUENCE_INPUT>
GGUCCACAUGAGGAUCACCCAUGUUAGGAUAUCUCGCCCGAGCCCAUAUGGGCCAGGCAGAGAAGGAAUGUGAA [Quertixees] (puzzle: Exclusion 1)

>  <ANSWER_LABEL>
criterion not met

$$$$
>  <SEQUENCE_INPUT>
AACGCUAAAGGAUAUACAUGAGGAUCACCCAUGUUGAGGAAGGUUAGAUGAGGAGUAAGUAGAAGGUUAGACGA [JR_Exclu3_Sub090] (puzzle: Exclusion 3)

>  <ANSWER_LABEL>
criterion met

$$$$
>  <SEQUENCE_INPUT>
UGUGCGUAUGUGAGGAUAUGCUGGUCCUUGGAUCAGCAGAAGGCACAUGAGGAUCACCCAUGUGGUGUCGUACU [salish99_Bmod_Ex4_009] (puzzle: Brourd's mod of Exclusion 4)

>  <ANSWER_LABEL>
criterion met

$$$$
>  <SEQUENCE_INPUT>
UAAUGCAAGCAAAGAUCUUACAUGAGGAUCACCCAUGUGCUCGUCUUAUAAAGUACUAUCACGAAAGUGAUAGUACU [Mat - Sensor v3 - turn-off var 1 - Eli Mod - D92] (puzzle: Sensor v3, turn-off variant 1)

>  <ANSWER_LABEL>
criterion met

$$$$
>  <SEQUENCE_INPUT>
ACGUUUUUUGAGGAUAUGCGAUAUUUUUUUAUCGUAGAAGGCGAUACAUGAGGAUCACCCAUGUUUAUGGGCAU [LRO-Ex6-19] (puzzle: Exclusion 6)

>  <ANSWER_LABEL>
criterion met

$$$$
>  <SEQUENCE_INPUT>
AGAUUAUGAGGAUAUCGAGUUUAGUACAUGAGGAUCACCCAUGUUAUCCAGGUCUCGUUUCGAGAAGGCAUGAUUC [LRO-Ex5-09] (puzzle: Exclusion 5)

>  <ANSWER_LABEL>
criterion met

$$$$
>  <SEQUENCE_INPUT>
UUAUACGUUGAGGAUAUGUCAUUUAGUAUAGUUACAGAAGGCGAUACAUGAGGAUCACCCAUGUUUAUGGGCAU [Ex-6 Malc#2] (puzzle: Exclusion 6)

>  <ANSWER_LABEL>
criterion met

$$$$
>  <SEQUENCE_INPUT>
AACUACUCUGUGAGGAUAUGCGAUCGUUGAUCAAAGCAGAAGGCACAUGAGGAUCACCCAUGUUCCUACGAGGG [Edatbiat] (puzzle: Brourd's mod of Exclusion 4)

>  <ANSWER_LABEL>
criterion met

$$$$
>  <SEQUENCE_INPUT>
GUCCUACAUGAGGAUCACCCAUGUAAGGAUAUGCUAGCGGUCGGAAGACUGACUGCUAGCAGAAGGUACAUGAU [Mat - Mod of JL D79] (puzzle: Exclusion 1)

>  <ANSWER_LABEL>
criterion not met

$$$$
>  <SEQUENCE_INPUT>
GAAAAGAUAGGAUAUACAAGAAGAAAAGAAAAGAAAAGAAAACAUGAGGAUCACCCAUGUAGAAGGAUCAAAAG [Default title] (puzzle: Exclusion 2)

>  <ANSWER_LABEL>
criterion not met

$$$$
>  <SEQUENCE_INPUT>
GGUUCACGAGGAUAUCGAUUUUAGUACAUGAGGAUCACCCAUGUUGUCCAGGUUUCGAUUCGAGAAGGCGUGAACC [LRO-Ex5-04] (puzzle: Exclusion 5)

>  <ANSWER_LABEL>
criterion met

$$$$
>  <SEQUENCE_INPUT>
GGUUGGCGAGGAUAUACAUGAGGAUCACCCAUGUGAGAGAAAAAAGUGAGGAAGAAAAGUAGAAGGCGCUGACA [salish99_ex3_r3_046] (puzzle: Exclusion 3)

>  <ANSWER_LABEL>
criterion met

$$$$
>  <SEQUENCE_INPUT>
GUAGAGUAAGGAUAUGGUGAAUAGGAUAGAAUGGUUAGAAACUAGAAGGUACAUGAGGAUCACCCAUGUAAUGU [Excluse me!!!! 23 - Jieux - Exclusion 4] (puzzle: Exclusion 4)

>  <ANSWER_LABEL>
criterion met

$$$$
>  <SEQUENCE_INPUT>
CGUACUGAAGUGAGGAUAUUGUCUCGGAUACGAAACAAGAAGGCACAUGAGGAUCACCCAUGUAGACAGUACGA [Malc #30 mod 2] (puzzle: Brourd's mod of Exclusion 4)

>  <ANSWER_LABEL>
criterion not met

$$$$
>  <SEQUENCE_INPUT>
GAGGCAUGCUGAGGUCCACACAUGAGGAUCACCCAUGUAAUGACAAGCUUUUUACUCAUCUUAUCGCUAUCGCGUUC [Tiinarre] (puzzle: Sensor v3, turn-off variant 1)

>  <ANSWER_LABEL>
criterion met

$$$$
>  <SEQUENCE_INPUT>
AGAUCCUGAGUCAGGAUAUAGAGGCGGUAGCCUGGCUAGAAGGGACAUGAGGAUCACCCAUGUGGGUUCUUGCC [Gecela] (puzzle: Brourd's mod of Exclusion 4)

>  <ANSWER_LABEL>
criterion not met

$$$$
>  <SEQUENCE_INPUT>
CCGCAAAAUGAGGAUAUCGUAUCGGAUACGAUACGAGAAGGCGUAACAUGAGGAUCACCCAUGUGUCCUAGCGG [Fiskers Ex 6 - 35] (puzzle: Exclusion 6)

>  <ANSWER_LABEL>
criterion not met

$$$$
